biological target: diadenylate cyclase of Streptococcus suis (ssDacA) (Streptococcus suis)
Sequence (A0A0H3N0L3 entry or part of it): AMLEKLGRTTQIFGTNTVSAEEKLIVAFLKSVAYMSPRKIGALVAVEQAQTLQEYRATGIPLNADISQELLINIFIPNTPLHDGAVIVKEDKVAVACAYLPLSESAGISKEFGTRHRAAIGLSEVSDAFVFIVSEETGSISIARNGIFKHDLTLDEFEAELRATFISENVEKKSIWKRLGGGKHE
endpoint: IC50 (µM)
# value in µM; strip the unit string

Supply IC50 measured with diadenylate cyclase of Streptococcus suis (ssDacA) (Streptococcus suis) for Oc1ccc2ccccc2c1SSc1c(O)ccc2ccccc12 [IPA-3, 2,2′-dihydroxy-1,1′-dinapthyldisulfide] . 38.2

Source of measurements: paper PMC8944544
